System: Human immunodeficiency virus type 1 integrase (Human immunodeficiency virus 1, UniProt Q7ZJM1)
Sequence (Q7ZJM1 whole entry): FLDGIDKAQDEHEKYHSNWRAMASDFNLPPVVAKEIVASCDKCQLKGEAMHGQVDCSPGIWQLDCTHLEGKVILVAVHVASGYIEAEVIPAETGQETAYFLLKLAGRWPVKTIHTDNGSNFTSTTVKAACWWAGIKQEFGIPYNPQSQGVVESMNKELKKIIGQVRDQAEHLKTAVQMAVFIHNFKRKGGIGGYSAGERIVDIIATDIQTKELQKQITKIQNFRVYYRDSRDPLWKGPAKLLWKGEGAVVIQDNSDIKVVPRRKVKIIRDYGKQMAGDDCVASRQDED
pIC50: −log10 of the molar value.
Response key: Met means pIC50 >= 7; Not met means pIC50 < 7.

Examples with answers:
COc1c2c(c(O)c3ncc(F)cc13)C(=O)N(Cc1ccc(F)cc1)C2 :: Met
COc1c2c(c(O)c3nccnc13)C(=O)N(Cc1ccc(F)cc1)C2 :: Not met
COc1c2c(c(O)c3ncn(Cc4ccccc4)c13)C(=O)N(Cc1ccc(F)cc1)C2 :: Not met
COc1c2c(c(O)c3c1NCCN3)C(=O)N(Cc1ccc(F)cc1)C2 :: Not met

Input line: Decide: is the reported value of pIC50 for CN(C)S(=O)(=O)Oc1c2c(c(O)c3nccnc13)C(=O)N(Cc1ccc(F)cc1)C2 equal to or greater than 7?
Output line: Met

These entries and their values trace back to ChEMBL document CHEMBL1138967.
